# TARGET OR SYSTEM: FLAG-tagged Vanin-1 (AA 22-493, T26I) (Homo sapiens (Human), UniProt O95497, T26I)
# Sequence (O95497 22-493 T26I): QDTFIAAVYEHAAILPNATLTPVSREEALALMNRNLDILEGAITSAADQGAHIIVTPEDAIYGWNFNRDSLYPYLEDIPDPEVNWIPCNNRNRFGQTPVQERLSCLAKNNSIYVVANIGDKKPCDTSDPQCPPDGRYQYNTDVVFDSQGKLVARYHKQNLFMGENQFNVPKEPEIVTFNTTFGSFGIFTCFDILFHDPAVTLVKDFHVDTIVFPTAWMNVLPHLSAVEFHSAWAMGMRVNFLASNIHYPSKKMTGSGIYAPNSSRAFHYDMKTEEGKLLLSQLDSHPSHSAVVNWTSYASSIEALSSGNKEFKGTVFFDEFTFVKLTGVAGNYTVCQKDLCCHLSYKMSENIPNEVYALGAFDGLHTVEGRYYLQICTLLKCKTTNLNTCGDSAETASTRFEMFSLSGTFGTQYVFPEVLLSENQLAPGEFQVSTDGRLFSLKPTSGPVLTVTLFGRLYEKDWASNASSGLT
# TEST SUMMARY: Vanin-1 enzymatic assay
# ASSAY SETUP: formation of pantothenic acid from D-pantethine (3 μM), RapidFire MS; geometric mean in case of multiple measurements; read-out: VNN 1 IC50
# Protocol: The test compounds are dissolved in 100% DMSO at a concentration of 10 mM and in a first step diluted in DMSO to a concentration of 5 mM, followed by serial dilution steps in 100% DMSO. Dilution factor and number of dilution steps may vary according to needs. Typically 8 different concentrations by 1:5 dilutions are prepared, a further intermediate dilutions of the substances is carried out with assay buffer resulting in 1% final DMSO concentration in the assay. […]
MEASURED ATTRIBUTE: pIC50
Give bare numbers, as −log10 of the molar value.

1. CC(=O)N(C)[C@H]1CCN(C(=O)c2cnc3c(c2)CCC(C)(C)N3)C1 9.30

Please give pIC50 for each item listed below.
1. CN(C(=O)C1CCC1)[C@H]1CCN(C(=O)c2cnc3c(c2)CCC(C)(C)N3)C1
2. C[C@]1(c2ccc(F)cc2)Cc2cc(C(=O)N3CC[C@H](N4CCOC4=O)C3)cnc2N1
3. CC(=O)N(C)[C@H]1CCN(C(=O)c2cnc3c(c2)C[C@](C)(c2cccc(F)c2)N3)C1

[9.22, 10.00, 10.00]

###

# TARGET OR SYSTEM: FLAG-tagged Vanin-1 (AA 22-493, T26I) (Homo sapiens (Human), UniProt O95497, T26I)
# TEST SUMMARY: Vanin-1 enzymatic assay
# ASSAY SETUP: formation of pantothenic acid from D-pantethine (3 μM), RapidFire MS; geometric mean in case of multiple measurements; read-out: VNN 1 IC50
Lab note: cut-off is 0.3 nM. Strictly less in IC50 is true. Exactly 0.3 nM or more is false.

COMPOUND	DISCRETE LABEL
C[C@]1(c2cccc(Cl)c2)Cc2cc(C(=O)N3CC[C@H](N4CCCC4=O)C3)cnc2N1 [Example 7.1]	true

Please check: IC50 for CN(C(=O)C1CC(F)(F)C1)[C@H]1CCN(C(=O)c2cnc3c(c2)CCC(C)(C)N3)C1 [Example 11.11] , strictly under 0.3 nM or not?
false

State whether 0.3 nM exceeds IC50 recorded for CC(=O)N(C)[C@H]1CCN(C(=O)c2cnc3c(c2)C[C@](C)(c2ccc(F)cc2)N3)C1 [Example 6] .
true

Is IC50 strictly under 0.3 nM for the entry CN(C(=O)C1CC1)[C@H]1CCN(C(=O)c2cnc3c(c2)CCCC(C)(C)N3)C1 [Example 12.6] ?
false

###

# TARGET OR SYSTEM: FLAG-tagged Vanin-1 (AA 22-493, T26I) (Homo sapiens (Human), UniProt O95497, T26I)
# TEST SUMMARY: Vanin-1 enzymatic assay
# ASSAY SETUP: formation of pantothenic acid from D-pantethine (3 μM), RapidFire MS; geometric mean in case of multiple measurements; read-out: VNN 1 IC50
MEASURED ATTRIBUTE: log10 of IC50 (log10 of the value in nM)
Kindly note that the scale is log10 and the underlying IC50 is in nM.

Reference set (5 entries):
COMPOUND	log10 of IC50
CN(C(=O)C1(C)CCC1)[C@H]1CCN(C(=O)c2cnc3c(c2)CCC(C)(C)N3)C1 [Example 11.4]	-0.05
CN(C(=O)C1(C#N)CC1)[C@H]1CCN(C(=O)c2cnc3c(c2)CCC(C)(C)N3)C1 [Example 11.7]	0.69
CC1(C)CCc2cc(C(=O)N3CC4(CCOCC4)C3)cnc2N1 [Example 11.2]	-0.52
CN(c1ncccn1)[C@H]1CCN(C(=O)c2cnc3c(c2)C[C@](C)(c2ccc(F)cc2)N3)C1 [Example 5.5]	-0.70
CN(C(=O)C1(C#N)CC1)[C@H]1CCN(C(=O)c2cnc3c(c2)CC(C)(C)N3)C1 [Example 2.2]	0.04

Could I get log10 of IC50 for every one of these entries?
1. CC(=O)N(C)[C@H]1CCN(C(=O)c2cnc3c(c2)C[C@](C)(c2ccccc2)N3)C1 [Example 9.3]
2. CC(=O)N(C)[C@H]1CCN(C(=O)c2cnc3c(c2)CC(C)(C)N3)C1 [Example 1.1]
3. CN(C(=O)C1CCC1)[C@H]1CCN(C(=O)c2cnc3c(c2)CC(C)(C)N3)C1 [Example 2.1]
4. C[C@]1(c2cccc(Cl)c2)Cc2cc(C(=O)N3CC[C@H](N4CCOC4=O)C3)cnc2N1 [Example 7.4]
5. CC(=O)N(C)[C@H]1CCN(C(=O)c2cnc3c(c2)C[C@](C)(c2ccc(C#N)cc2)N3)C1 [Example 10]

[-0.70, 0.40, -0.05, -1.00, -0.70]
